target: HLA-A*03:01; assay: IEDB peptide-MHC binding, purified MHC/direct/fluorescence; filed as Kd, often an IC50 or EC50 that approximates it; bounds were set here for any values at or beyond the usual limits of such assays; conditions: source organism: Brucella abortus
readoutName: Kd

residueString: GLAEKPNDY
readoutName: Kd
dataValue: ≥ 20 µM

----------
biological target: HLA-A*03:01; test: IEDB peptide-MHC binding, purified MHC/competitive/radioactivity; filed as Kd, often an IC50 or EC50 that approximates it; bounds were set here for any values at or beyond the usual limits of such assays; details: source organism: SARS coronavirus Tor2
The sequences listed here are annotated with their log10 Kd.
readoutName: log10 Kd (log10 of the value in nM)

residueString: STCFKLMLK
dataValue: -0.09

residueString: AVLDMCAALK
dataValue: 1.11

residueString: SAQCFKMFYK
dataValue: 1.26

residueString: ATSRTLSYYK
dataValue: 0.52

residueString: AAAYFVGYLK
dataValue: 0.97

residueString: AQGLVASIK
dataValue: 2.82

residueString: KSKSFNHVLK
dataValue: 0.24

residueString: KFVFPLNSK
dataValue: 2.23

residueString: LVLLILMTAR
dataValue: 3.58

residueString: KTVQFCDAMR
dataValue: 3.25

residueString: YVKSPKFSK
dataValue: 3.84

residueString: GANYLGKPK
dataValue: 2.71

residueString: IQFMMSRRR
dataValue: 2.55

residueString: RVYANLGER
dataValue: 1.27

residueString: VFAYVGCYNK
dataValue: 3.18

residueString: KVNSTLEQY
dataValue: 1.77

residueString: TLQGPPGTGK
dataValue: 2.45

----------
molecular target: HLA-A*02:19; assay: IEDB peptide-MHC binding, purified MHC/competitive/fluorescence; filed as Kd, often an IC50 or EC50 that approximates it; bounds were set here for any values at or beyond the usual limits of such assays; conditions: source organism: Entamoeba histolytica HM-1:IMSS

residueString: LICYQIEYI
Kd: ≥ 20 µM

----------
molecular target: HLA-A*02:01; assay: IEDB peptide-MHC binding, purified MHC/direct/fluorescence; filed as Kd, often an IC50 or EC50 that approximates it; bounds were set here for any values at or beyond the usual limits of such assays; details: source organism: Pseudomonas putida
pKd: −log10 of the molar value.
readoutName: pKd

residueString: VMTEGRHAV
readoutName: pKd
dataValue: 6.39

----------
target: HLA-B*15:02; test: IEDB peptide-MHC binding, purified MHC/direct/fluorescence; filed as Kd, often an IC50 or EC50 that approximates it; bounds were set here for any values at or beyond the usual limits of such assays; conditions: source organism: Aracatuba virus
readoutName: Kd

residueString: LLLLISLVY
experimentalSystem: HLA-B*15:02
dataValue: 4.57 µM

----------
molecular target: HLA-A*03:01; assay: IEDB peptide-MHC binding, purified MHC/direct/fluorescence; filed as Kd, often an IC50 or EC50 that approximates it; bounds were set here for any values at or beyond the usual limits of such assays; details: source organism: Mycobacterium tuberculosis variant bovis
pKd: −log10 of the molar value.
readoutName: pKd

residueString: MLAPSTLGY
dataValue: 7.46

----------
target: HLA-B*15:01; test: IEDB peptide-MHC binding, purified MHC/direct/fluorescence; filed as Kd, often an IC50 or EC50 that approximates it; bounds were set here for any values at or beyond the usual limits of such assays; conditions: source organism: Yersinia pestis
pKd: −log10 of the molar value.
The sequences listed here are annotated with their pKd.
readoutName: pKd

residueString: FMSLQSGDV
readoutName: pKd
inequalitySymbol: ≤
dataValue: 4.70
//
residueString: YLHRDIFDI
readoutName: pKd
inequalitySymbol: =
dataValue: 5.06
//
residueString: FLPPQIPVI
readoutName: pKd
inequalitySymbol: =
dataValue: 6.32
